assay: label from the status in PepcDB records
endpointName: protein production

INSERT INTO assay_data (constructsequence, endpointname, result) VALUES
  ('MAAGKTHDKITVIMTPFIASFFLFINMIFLEDLGSSLAFTILGVSIYMFGGYMFSGDLDIKSREFRRWGYLKFIWIPYQKLFEHRSVFTHGFILGPIIRILYVSIIPITISSLLYSFSIINISTPEMLKLVFNFILKNKILFGNMALALFLGSGLHTITDMIYSYFKRKFSYKKRKSSKKYSRSKRPSRRAA', 'protein production', 'failed'),
  ('MSAPIEQPAWTKRMNANPQSQAAPVSAAQQDLQRLRTHLNTQIIGQSDLVDAMLIALLADGHMLVEGAPGLAKTRAIHVLSRGVEADFQRIQFTPDLLPADLTGTEVYRPQDGSFHFQPGPLFHNLVLADEINRSPAKVQSALLEAMAERQITVGRKTYPLPALFLVMATQNPIEQEGTYPLPEAQLDRFLMYVRIGYPGAEQEKAILRLVRGEAGRPECRAAEAMEPVSQQTLFSAREEVLGVYLAEALEDYLLQLILATREPARYGDSLARWILYGVSPRATLALDRCARARAWLDGRDYVTPDDIQALAPAILRHRLILSYEAEAEGVSSDQVVKDLLRRIAVP', 'protein production', 'failed');
